TARGET_OR_SYSTEM: human NEP (Homo sapiens (Human), UniProt P08473)
Sequence (P08473 52-750): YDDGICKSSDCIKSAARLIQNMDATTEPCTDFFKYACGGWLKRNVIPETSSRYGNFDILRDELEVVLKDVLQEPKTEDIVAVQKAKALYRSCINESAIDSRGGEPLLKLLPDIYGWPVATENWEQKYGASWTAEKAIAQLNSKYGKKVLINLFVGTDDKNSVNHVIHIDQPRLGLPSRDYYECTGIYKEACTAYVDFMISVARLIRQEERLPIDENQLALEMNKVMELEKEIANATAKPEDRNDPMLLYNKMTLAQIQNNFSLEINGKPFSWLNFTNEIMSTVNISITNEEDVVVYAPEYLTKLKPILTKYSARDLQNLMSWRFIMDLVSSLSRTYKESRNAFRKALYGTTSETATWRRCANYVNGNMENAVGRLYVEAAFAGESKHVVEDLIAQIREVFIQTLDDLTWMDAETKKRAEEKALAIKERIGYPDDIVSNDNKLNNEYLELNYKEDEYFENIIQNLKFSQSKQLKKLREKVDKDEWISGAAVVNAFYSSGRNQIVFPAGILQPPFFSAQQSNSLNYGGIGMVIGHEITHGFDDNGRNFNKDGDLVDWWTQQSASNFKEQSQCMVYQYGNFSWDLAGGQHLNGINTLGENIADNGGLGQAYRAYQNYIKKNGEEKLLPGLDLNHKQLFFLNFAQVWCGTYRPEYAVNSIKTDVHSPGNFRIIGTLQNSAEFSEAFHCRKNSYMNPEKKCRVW
ASSAY_INFO: In vitro enzyme inhibition assay at human NEP
CONDITIONS: pKi, recombinant human NEP, fluorogenic peptide substrate, 37° C.
pKi: −log10 of the molar value.
READOUT_NAME: pKi

{"COMPOUND": "O=C(N[C@H](Cc1ccc(-c2cc(Cl)ccc2F)cc1)C[C@@H](CNCCO)C(=O)O)c1cnn[nH]1 (single isomer, unassigned) [Example 48b]", "READOUT_NAME": "pKi", "RESULT": "8.50 to 8.90"}
{"COMPOUND": "COC[C@@H]1CCN1C[C@H](C[C@@H](Cc1ccc(-c2cc(Cl)ccc2F)cc1)NC(=O)c1c[nH]nn1)C(=O)O [Example 103d]", "READOUT_NAME": "pKi", "RESULT": "≥ 9.00"}

// moving on: another record for pKi
Q. What does the data say about its pKi? Entry: CCc1cc(C(=O)N[C@H](Cc2ccc(-c3cc(Cl)ccc3F)cc2)C[C@@H](N)C(=O)O)on1
A. 8.50 to 8.90

====

TARGET_OR_SYSTEM: human NEP (Homo sapiens (Human))
ASSAY_INFO: In vitro enzyme inhibition assay at human NEP
CONDITIONS: pKi, recombinant human NEP, fluorogenic peptide substrate, 37° C.
READOUT_NAME: Ki

{"MOLECULE": "N[C@H](C[C@@H](Cc1ccc(-c2cc(Cl)ccc2F)cc1)NC(=O)c1c[nH]nn1)C(=O)O", "TARGET_OR_SYSTEM": "human NEP (Homo sapiens (Human))", "Ki": "≤ 1 nM"}
{"MOLECULE": "O=C(N[C@H](Cc1ccc(-c2cc(Cl)ccc2F)cc1)C[C@@H](CN1CC(CCO)C1)C(=O)O)c1c[nH]nn1", "TARGET_OR_SYSTEM": "human NEP (Homo sapiens (Human))", "Ki": "≤ 1 nM"}

Q. Field request: Ki | item: CC(=O)N[C@H](C[C@@H](Cc1ccc(-c2ccccc2F)cc1)NC(=O)c1c[nH]nn1)C(=O)O
A. 3.16 to 10 nM

Q. Which Ki value belongs to NC[C@H](C[C@@H](Cc1ccc(-c2ccccc2)cc1)NC(=O)c1c[nH]nn1)C(=O)O ?
A. 1.26 to 3.16 nM

Q. Can you look up the measured Ki of COCCCNC[C@H](C[C@@H](Cc1ccc(-c2cc(Cl)ccc2F)cc1)NC(=O)c1cnn[nH]1)C(=O)O for me?
A. 1.26 to 3.16 nM

Q. Suppose we examine the molecule Cc1n[nH]c(C(=O)N[C@H](Cc2ccc(-c3cc(Cl)ccc3F)cc2)C[C@@H](N)C(=O)O)c1F ; what Ki value has been reported?
A. 1.26 to 3.16 nM

Q. Data request, read-out Ki, for NCCCC(=O)N[C@H](C[C@@H](Cc1ccc(-c2cc(Cl)ccc2F)cc1)NC(=O)c1cnn[nH]1)C(=O)O
A. ≤ 1 nM

====

Property: Ki; scope: individual molecules
TARGET_OR_SYSTEM: human NEP (Homo sapiens (Human), UniProt P08473)
ASSAY_INFO: In vitro enzyme inhibition assay at human NEP
CONDITIONS: pKi, recombinant human NEP, fluorogenic peptide substrate, 37° C.

{"MOLECULE": "CCCCCCOC(=O)[C@H](N)C[C@@H](Cc1ccc(-c2cc(Cl)ccc2F)cc1)NC(=O)c1cnn[nH]1 [Example 14b]", "TARGET_OR_SYSTEM": "human NEP (Homo sapiens (Human), UniProt P08473)", "Ki": "31.6 to 100 nM"}

Q. API: value(readout= Ki, system= human NEP (Homo sapiens (Human), UniProt P08473), query= NC(=O)C[C@@H](C[C@@H](Cc1ccc(-c2cccc(F)c2)cc1)NC(=O)c1cnn[nH]1)C(=O)O )
A. 1.26 to 3.16 nM

Q. What value of Ki on human NEP (Homo sapiens (Human), UniProt P08473) does CNCC(=O)N[C@H](C[C@@H](Cc1ccc(-c2cc(Cl)ccc2F)cc1)NC(=O)c1cnn[nH]1)C(=O)O have?
A. 1.26 to 3.16 nM

Q. GET /values?readout=Ki&system=human NEP (Homo sapiens (Human), UniProt P08473)&item= O=C(N[C@H](Cc1ccc(-c2ccccc2)cc1)C[C@@H](COCCCO)C(=O)O)c1c[nH]nn1
A. 1.26 to 3.16 nM

====

TARGET_OR_SYSTEM: human NEP (Homo sapiens (Human), UniProt P08473)
ASSAY_INFO: In vitro enzyme inhibition assay at human NEP
CONDITIONS: pKi, recombinant human NEP, fluorogenic peptide substrate, 37° C.
READOUT_NAME: Ki

{"COMPOUND": "Cc1cnc(C(=O)N[C@H](Cc2ccc(-c3cc(Cl)ccc3F)cc2)C[C@@H](CCN)C(=O)O)o1", "Ki": "1.26 to 3.16 nM"}
{"COMPOUND": "N#CC1CN(C[C@H](C[C@@H](Cc2ccc(-c3cc(Cl)ccc3F)cc2)NC(=O)c2cnn[nH]2)C(=O)O)C1 [Example 88b]", "Ki": "≤ 1 nM"}

Q. Data request, read-out Ki, for COCCN[C@H](C[C@@H](Cc1ccc(-c2cc(Cl)ccc2F)cc1)NC(=O)c1c[nH]nn1)C(=O)O [Example 98a]
A. ≤ 1 nM

Q. Recorded Ki for O=C(N[C@H](Cc1ccc(-c2cc(Cl)ccc2F)cc1)C[C@@H](CN1CCOCC1)C(=O)O)c1c[nH]nn1 [Example 69a] , please?
A. 1.26 to 3.16 nM

Q. # lookup: Ki of O=C(N[C@H](Cc1ccc(-c2cc(Cl)ccc2F)cc1)C[C@@H](CN1CC(F)(F)C1)C(=O)O)c1cnn[nH]1 [Example 90b]
A. ≤ 1 nM

Q. Record request: Ki value, item CC(=O)N1CCC(C(C[C@@H](Cc2ccc(-c3ccccc3)cc2)NC(=O)c2cnn[nH]2)C(=O)O)CC1 (stereo in doubt)
A. 3.16 to 10 nM

Q. # query: Ki of entry O=C(N[C@H](Cc1ccc(-c2cc(Cl)ccc2F)cc1)C[C@@H](CN1CC[C@@H]1CO)C(=O)O)c1cnn[nH]1 [Example 94b]
A. ≤ 1 nM

====

TARGET_OR_SYSTEM: human NEP (Homo sapiens (Human), UniProt P08473)
ASSAY_INFO: In vitro enzyme inhibition assay at human NEP
CONDITIONS: pKi, recombinant human NEP, fluorogenic peptide substrate, 37° C.
READOUT_NAME: Ki

Study these solved cases before continuing.
{"COMPOUND": "COCCCN[C@H](C[C@@H](Cc1ccc(-c2cc(Cl)ccc2F)cc1)NC(=O)c1c[nH]nn1)C(=O)O [Example 97a]", "Ki": "≤ 1 nM"}
{"COMPOUND": "O=C(N[C@H](Cc1ccc(-c2cc(Cl)ccc2F)cc1)C[C@@H](CNCCCO)C(=O)O)c1cnn[nH]1 [Example 87b]", "Ki": "≤ 1 nM"}
{"COMPOUND": "COc1cnc(C(=O)N[C@H](Cc2ccc(-c3cc(Cl)ccc3F)cc2Cl)C[C@H](N)C(=O)O)o1", "Ki": "3.16 to 10 nM"}

Q. Recorded Ki for CCc1cc(C(=O)N[C@H](Cc2ccc(-c3cc(Cl)ccc3F)cc2Cl)C[C@@H](N)C(=O)O)on1 , please?
A. 1.26 to 3.16 nM

Q. For the compound NC[C@H](C[C@@H](Cc1ccc(-c2cc(Cl)ccc2F)cc1)NC(=O)c1coc(C2CC2)n1)C(=O)O , what Ki is on record?
A. 1.26 to 3.16 nM

Q. // returns reported Ki for input Cc1cnc(C(=O)N[C@H](Cc2ccc(-c3cc(Cl)ccc3F)cc2)C[C@@H](CNC(=O)CN)C(=O)O)o1
A. ≤ 1 nM

Q. Please report the recorded Ki for N[C@H](C[C@@H](Cc1ccc(-c2cc(Cl)ccc2F)cc1)NC(=O)c1coc(C2CC2)n1)C(=O)O .
A. 1.26 to 3.16 nM

Q. Please look up its Ki: CN(C)CCOC[C@H](C[C@@H](Cc1ccc(-c2cc(Cl)ccc2F)cc1)NC(=O)c1c[nH]nn1)C(=O)O
A. ≤ 1 nM

Q. Find the recorded Ki belonging to NCC[C@H](C[C@@H](Cc1ccc(-c2cc(Cl)ccc2F)cc1)NC(=O)c1cnn[nH]1)C(=O)O and report it.
A. 1.26 to 3.16 nM

Q. Which measured Ki value corresponds to CC1(C)CN(C[C@H](C[C@@H](Cc2ccc(-c3cc(Cl)ccc3F)cc2)NC(=O)c2cnn[nH]2)C(=O)O)C1 [Example 89b] ?
A. ≤ 1 nM

Q. Requested read-out: Ki. Entry: CC(C)c1coc(C(=O)N[C@H](Cc2ccc(-c3cc(Cl)ccc3F)cc2)C[C@@H](NC(=O)[C@@H](N)CO)C(=O)O)n1
A. 1.26 to 3.16 nM

Q. What value of measured Ki is listed for COC(=O)N[C@H](C[C@@H](Cc1ccc(-c2ccccc2)cc1)NC(=O)c1c[nH]nn1)C(=O)O ?
A. 1.26 to 3.16 nM

Q. For the compound CCOc1oc(C(=O)N[C@H](Cc2ccc(-c3cc(Cl)ccc3F)cc2)C[C@@H](NC(=O)OC)C(=O)O)nc1C , what Ki is on record?
A. 1.26 to 3.16 nM

Q. Item CC(C)c1coc(C(=O)N[C@H](Cc2ccc(-c3cc(Cl)ccc3F)cc2)C[C@@H](NC(=O)CN)C(=O)O)n1 has what recorded Ki?
A. 1.26 to 3.16 nM
